Entries and their measured Decomposition efficiency of glycitin family in concentrated soybean protein follow.
# Test system: Crude diglycosidase
# experiment-description: Examination of pH in the conversion into isoflavone aglycons by diglycosidase using soybean materials
# Format: biochemical, Penicillium multicolor IAM7153
# conditions: pH6.6; heat treatment of enzyme: no; reaction time 0 h
readout-name: Decomposition efficiency of glycitin family in concentrated soybean protein (%)

# smiles-str, system-tested, result-number
records = [
    ("COc1cc2c(=O)c(-c3ccc(O)cc3)coc2cc1O[C@@H]1O[C@H](CO)[C@@H](O)[C@H](O)[C@H]1O", "Crude diglycosidase", 52.2),
    ("COc1cc2c(=O)c(-c3ccc(O)cc3)coc2cc1O[C@@H]1O[C@H](COC(=O)CC(=O)O)[C@@H](O)[C@H](O)[C@H]1O", "Crude diglycosidase", 0.4),
    ("COc1cc2c(=O)c(-c3ccc(O)cc3)coc2cc1O[C@@H]1O[C@H](COC(C)=O)[C@@H](O)[C@H](O)[C@H]1O", "Crude diglycosidase", 36.1),
    ("COc1cc2c(=O)c(-c3ccc(O)cc3)coc2cc1O", "Crude diglycosidase", 11.3),
]
